Where do the numbers come from? From the supplement of paper PMC10065799.

Test system: c-Src SH2
Assay summary: SH2 binding enrichment of the phosphorylated peptide, bacterial display (enrichment ratio); higher = better substrate or ligand; peptides without Tyr show the background
Given measured SH2 binding enrichment, output class 1 if it is greater than or equal to 1 and class 0 if not.

Query string: Is it the case that QMEKICTQQIQ [CCNB1IP1_Y125_Y125C] has SH2 binding enrichment reaching or exceeding 1?
Result string: class 0

Query string: Is it the case that LHAALYKRKLL [TTLL5_Y542_E543K] has SH2 binding enrichment reaching or exceeding 1?
Result string: class 0

Query string: Is it the case that KHGGNYVPAPK [OSCP1_Y237] has SH2 binding enrichment reaching or exceeding 1?
Result string: class 1

Query string: Is it the case that DWWQEYVLNES [TGM1_Y267_R264W] has SH2 binding enrichment reaching or exceeding 1?
Result string: class 0

Query string: Is it the case that PSDSGYSYETI [MAP1B_Y1921] has SH2 binding enrichment reaching or exceeding 1?
Result string: class 1

Query string: Is it the case that DTCPPYVLSQG [GJB4_Y237] has SH2 binding enrichment reaching or exceeding 1?
Result string: class 0

Query string: Is it the case that KKFVPYFDLFM [IPO5_Y530_E525K_YF] has SH2 binding enrichment reaching or exceeding 1?
Result string: class 0

Query string: Is it the case that SEASFYKSLNL [NGEF_Y289_YF] has SH2 binding enrichment reaching or exceeding 1?
Result string: class 0

Query string: Is it the case that LSIQTYSALNF [DES_Y423_P419S] has SH2 binding enrichment reaching or exceeding 1?
Result string: class 1

Query string: Is it the case that IGMSSYVMLAS [GGCX_Y301_F299S] has SH2 binding enrichment reaching or exceeding 1?
Result string: class 1

Query string: Is it the case that EVDGLYREAPI [MYL12B_Y143_E141G] has SH2 binding enrichment reaching or exceeding 1?
Result string: class 0

Query string: Is it the case that CLAKMYYSAVD [CP_Y539] has SH2 binding enrichment reaching or exceeding 1?
Result string: class 1

Query string: Is it the case that KPIETYFSKNF [PLP1_Y50_L46P_YF] has SH2 binding enrichment reaching or exceeding 1?
Result string: class 0

====

Test system: c-Src SH2;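 further: peptide library displayed on the E. coli surface as eCPX fusions, selected cells deep-sequenced, score is each peptide's frequency after selection divided by its frequency in the input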
Assay summary: SH2 binding enrichment of the phosphorylated peptide, bacterial display (enrichment ratio); higher = better substrate or ligand; peptides without Tyr show the background
Assay endpoint: SH2 binding enrichment
A bare number is all that is needed in reply.

Query string: Provide value of SH2 binding enrichment for this record tested with c-Src SH2: FLTQHYDAIPQ [ANG_Y38_K41I]
Result string: 13.9

Query string: Provide value of SH2 binding enrichment for this record tested with c-Src SH2: ETKKQYDSFTY [TMED3_Y85]
Result string: 1

Query string: Provide value of SH2 binding enrichment for this record tested with c-Src SH2: PQQLWYTHEKK [UBTF_Y207]
Result string: 0.833

Query string: Provide value of SH2 binding enrichment for this record tested with c-Src SH2: WQQQSYLDSGS [CTNNB1_Y30_I35S]
Result string: 0.481

Query string: Provide value of SH2 binding enrichment for this record tested with c-Src SH2: VFLGAYDRFLP [SLC22A5_Y486_YF]
Result string: 1.06

Query string: Provide value of SH2 binding enrichment for this record tested with c-Src SH2: TGEKLYQHKEF [ZNF283_Y627_R629H]
Result string: 0.419

Query string: Provide value of SH2 binding enrichment for this record tested with c-Src SH2: IFKAAYFGVFD [SLC25A4_Y191_R188K_YF]
Result string: 1.01

Query string: Provide value of SH2 binding enrichment for this record tested with c-Src SH2: THPFPYLSLEI [MLH1_Y293_L292P]
Result string: 2.05

Query string: Provide value of SH2 binding enrichment for this record tested with c-Src SH2: NFATLYLKIFH [PDE6B_Y219_YF]
Result string: 0.781

Query string: Provide value of SH2 binding enrichment for this record tested with c-Src SH2: GISDEYHVIRR [GCDH_Y398_H403R]
Result string: 0.835

Query string: Provide value of SH2 binding enrichment for this record tested with c-Src SH2: MNPPPYSQLLS [FGF23_Y154_F157L]
Result string: 1.34

Query string: Provide value of SH2 binding enrichment for this record tested with c-Src SH2: TFVKSYTIHFS [F5_Y2153_M2148T_YF]
Result string: 0.537

Query string: Provide value of SH2 binding enrichment for this record tested with c-Src SH2: ENAGYYFRISA
Result string: 0.6

Query string: Provide value of SH2 binding enrichment for this record tested with c-Src SH2: VNNAVYGIDAM [EIF3J_Y143]
Result string: 0.507

Query string: Provide value of SH2 binding enrichment for this record tested with c-Src SH2: GGQVFYNSEYG [FLT4_Y1333]
Result string: 0.435

Query string: Provide value of SH2 binding enrichment for this record tested with c-Src SH2: NYADPYRQLQY [CTNND2_Y503]
Result string: 1.5

Query string: Provide value of SH2 binding enrichment for this record tested with c-Src SH2: YYHCTYKKRMI [CLEC12A_Y242]
Result string: 1.11

Query string: Provide value of SH2 binding enrichment for this record tested with c-Src SH2: LGLDEYLDKLK [FMNL2_Y352]
Result string: 0.588

Query string: Provide value of SH2 binding enrichment for this record tested with c-Src SH2: DALDNYVVRGV [PCCA_Y473_I475V]
Result string: 0.617

Query string: Provide value of SH2 binding enrichment for this record tested with c-Src SH2: SDVCMYRKNTF [SYNE2_Y570_I574T_YF]
Result string: 0.507

Query string: Provide value of SH2 binding enrichment for this record tested with c-Src SH2: LKLWDYSRGRC [WDR5B_Y239]
Result string: 0.74

Query string: Provide value of SH2 binding enrichment for this record tested with c-Src SH2: FRIGPYQPNVP [MATR3_Y784_YF]
Result string: 0.634

Query string: Provide value of SH2 binding enrichment for this record tested with c-Src SH2: KFVKMCDNHQL [MYO9A_Y203_Y203C_YF]
Result string: 0.587

Query string: Provide value of SH2 binding enrichment for this record tested with c-Src SH2: HHTNEYEFDEL [TGM1_Y134_D132N_YF]
Result string: 0.828

Query string: Provide value of SH2 binding enrichment for this record tested with c-Src SH2: NTCNRYCRDEI [ITGB3_Y660]
Result string: 0.808

Query string: Provide value of SH2 binding enrichment for this record tested with c-Src SH2: DFLSSYSAVNQ [OAT_Y85]
Result string: 2.01

Query string: Provide value of SH2 binding enrichment for this record tested with c-Src SH2: TKEPKYGGAGS [KIAA1210_Y1615_E1616G]
Result string: 0.487

Query string: Provide value of SH2 binding enrichment for this record tested with c-Src SH2: MDDKEYYSVHN [MET_Y1234_Y1230D]
Result string: 0.557

Query string: Provide value of SH2 binding enrichment for this record tested with c-Src SH2: FETSHYPASPD [CTNND2_Y1217_YF]
Result string: 0.383

Query string: Provide value of SH2 binding enrichment for this record tested with c-Src SH2: LIDGFYRLTAD [JAK2_Y373_YF]
Result string: 0.503

Query string: Provide value of SH2 binding enrichment for this record tested with c-Src SH2: LVRPPYSYLAL [FOXI1_Y126_S129L]
Result string: 3.64

Query string: Provide value of SH2 binding enrichment for this record tested with c-Src SH2: GPQSLYNGLVA [UCP2_Y79_R76Q]
Result string: 0.697

Query string: Provide value of SH2 binding enrichment for this record tested with c-Src SH2: GVIRHYVVCST [BTK_Y334]
Result string: 0.495

Query string: Provide value of SH2 binding enrichment for this record tested with c-Src SH2: DPLLTYQFPPK [LMNA_Y481_R482Q]
Result string: 0.546

Query string: Provide value of SH2 binding enrichment for this record tested with c-Src SH2: IRYPPYTDWNQ [ALDH3B2_Y365_H361R]
Result string: 0.767

Query string: Provide value of SH2 binding enrichment for this record tested with c-Src SH2: YVPSNYVAEDR [FRK_Y104_I100V]
Result string: 0.608

Query string: Provide value of SH2 binding enrichment for this record tested with c-Src SH2: NSRFTYKLEVK [USH2A_Y3747_YF]
Result string: 0.331

Query string: Provide value of SH2 binding enrichment for this record tested with c-Src SH2: HSFQCYGQNEA [ENTPD3_Y262_R264Q]
Result string: 0.596

Query string: Provide value of SH2 binding enrichment for this record tested with c-Src SH2: WRVIGYHVVVW [ATP13A2_Y50]
Result string: 0.727

Query string: Provide value of SH2 binding enrichment for this record tested with c-Src SH2: LTDTVYSSSSA [OR4C12_Y71_I67T]
Result string: 0.349

Query string: Provide value of SH2 binding enrichment for this record tested with c-Src SH2: RSDEDYLFREE [POR_Y573_YF]
Result string: 0.477

Query string: Provide value of SH2 binding enrichment for this record tested with c-Src SH2: TIQDAYMHITS [ADCY10_Y318_A313T]
Result string: 1.26

Query string: Provide value of SH2 binding enrichment for this record tested with c-Src SH2: AVNDFYAAKKT [CCDC178_Y422]
Result string: 0.457
